Molecular target: RET(KD: 658-1114 G810R) (Homo sapiens, UniProt P07949, G810R)
Construct: 658-1114; expressed in transfected cells; host or cells: 293T.165 (293T cells, generated in-house)
Sequence (P07949 658-1114 G810R): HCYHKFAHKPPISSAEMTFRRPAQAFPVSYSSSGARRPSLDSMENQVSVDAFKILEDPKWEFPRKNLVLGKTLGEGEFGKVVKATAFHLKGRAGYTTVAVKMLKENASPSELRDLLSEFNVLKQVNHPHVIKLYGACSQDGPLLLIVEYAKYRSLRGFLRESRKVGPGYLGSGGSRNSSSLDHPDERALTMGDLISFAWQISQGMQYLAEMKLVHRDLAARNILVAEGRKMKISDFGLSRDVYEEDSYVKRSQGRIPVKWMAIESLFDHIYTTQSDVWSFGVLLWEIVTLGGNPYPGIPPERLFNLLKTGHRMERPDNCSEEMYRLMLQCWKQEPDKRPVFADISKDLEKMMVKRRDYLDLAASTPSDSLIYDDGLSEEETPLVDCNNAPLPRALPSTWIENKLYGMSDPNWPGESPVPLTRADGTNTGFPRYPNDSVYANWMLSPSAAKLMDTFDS
Assay: HiBiT-Degradation, RET G810R degradation assay (Nano-Glo HiBiT Lytic), 293T.165 cells
Format: cell-based
Conditions: 6.0 hours, % remaining protein, read-out: 293T.165 RET(KD: 658-1114 G810R) 6.0 hours (Emax)
For each of the compounds below, state its Emax.

Compound | Emax
CC(C)(C)CC(=O)N1[C@@H]2COC[C@H]1CN(c1ccc(-c3nc(-c4cnn([C@H]5CC[C@@H](N6CCN(c7ccc(NC8CCC(=O)NC8=O)cc7F)CC6)CC5)c4)cn4ncc(C#N)c34)cn1)C2 (single isomer, unassigned) | < 30%

Lab note: CC1(NC(=O)Cc2ccccc2)CCN(c2ccc(-c3cc(-c4ccc(N5CCN(C(=O)CN6CCC(c7ccc(NC8CCC(=O)NC8=O)cc7F)CC6)CC5)cc4)cn4ncc(C#N)c34)cn2)CC1 (centres unmarked) gave Emax of < 30%
